Test system: corn
Assay: Test B pre/postemergence corn
Format: in vivo, Zea mays
Conditions: Preemergence, Rate 500 g/ha; scale 0 to 10, 0 is no effect, 10 is complete control
experimental readout: Corn plant response rating

Solved cases below.
What does the record list as Corn plant response rating for C=C[Si](C)(C)Cn1c(=O)on(C(=O)N(c2ccc(Cl)cc2)C(C)C)c1=O ?
9

Continue with CC1CC1Cn1c(=O)on(C(=O)N(c2ccc(F)cc2)C(C)C)c1=O (centres unmarked)
9

Next up: CC(C)N(C(=O)n1oc(=O)n(CCC(F)(F)F)c1=O)c1ccc(F)cc1
8

Next:
State the recorded Corn plant response rating for this entry: CC[Si](C)(C)Cn1c(=O)on(C(=O)N(c2ccc(F)cc2)C(C)C)c1=O
0

Request: Cc1nc(Cl)sc1C(C)n1c(=O)on(C(=O)N(c2ccccc2)C(C)C)c1=O (centres unmarked)
0

###

System: morningglory
Experiment: Test B pre/postemergence morningglory
Format: in vivo, Ipomoea hederacea
Conditions: Rate 250 g/ha, Postemergence; scale 0 to 10, 0 is no effect, 10 is complete control
experimental readout: Plant response rating, Morningglory
Reply briefly: the number, and no unit.

# Plant response rating, Morningglory lookup, item CN(C(=O)n1oc(=O)n(Cc2ccccc2)c1=O)c1ccccc1
0

Then what about the molecule CC(C)N(C(=O)n1oc(=O)[nH]c1=O)c1ccc(F)cc1 ?
0

Ok, now CC(C)N(C(=O)n1oc(=O)n(C(C)c2ccccc2)c1=O)c1ccc(Cl)cc1 (stereo not drawn)
4

Same read-out for COc1ccccc1Cn1c(=O)on(C(=O)N(c2ccc(F)cc2)C(C)C)c1=O ?
8

And what about the molecule C=CCn1c(=O)on(C(=O)N(c2ccc(F)cc2)C(C)C)c1=O ?
8

---
Tell me the measured Plant response rating, Morningglory of Cc1ccc(N(C(=O)n2oc(=O)n(C(C)C)c2=O)C(C)C)cc1 , please.
6

###

Test system: morningglory
Test: Test B pre/postemergence morningglory
Format: in vivo, Ipomoea hederacea
Settings: Rate 125 g/ha; Postemergence; scale 0 to 10, 0 no effect, 10 complete control
experimental readout: Morningglory plant response rating
Answer with a number only.

# query: Morningglory plant response rating of entry CC(C)N(C(=O)n1oc(=O)n(-c2ccc(Cl)cc2C(F)(F)F)c1=O)c1ccc(F)cc1
7

Let us now turn to CC(C)N(C(=O)n1oc(=O)n(-c2cc(Cl)ccc2Cl)c1=O)c1ccc(F)cc1
1

Next:
Look up Morningglory plant response rating for this molecule: CCc1ccccc1-n1c(=O)on(C(=O)N(c2ccc(F)cc2)C(C)C)c1=O
2

// query: Cc1ccccc1-n1c(=O)on(C(=O)N(c2cc(OC(C)C)c(Cl)cc2Cl)C(C)C)c1=O
0

Also need Cc1cccc(C)c1-n1c(=O)on(C(=O)N(Cc2ccccc2)C(C)C)c1=O , thanks.
0

Same for Cc1cccc(C(C)C)c1-n1c(=O)on(C(=O)N(c2ccccc2)C(C)C)c1=O
1

# iterate: Cc1ccccc1-n1c(=O)on(C(=O)N(Cc2ccccc2)C(C)C)c1=O
0

###

Test system: blackgrass
Assay: Test B pre/postemergence blackgrass
Type: in vivo, Alopecurus myosuroides
Settings: Preemergence, Rate 125 g/ha; scale of 0 to 10 where 0 is no effect and 10 is complete control
Known Blackgrass plant response rating of a selection of compounds
// response body must contain only the number

Give the reported Blackgrass plant response rating for CC(C)N(C(=O)n1oc(=O)n(CC(=O)C2CCC2)c1=O)c1ccc(F)cc1 (system: blackgrass).
0

What would you report for CC(C)N(C(=O)n1oc(=O)n(Cc2nnc(Cl)s2)c1=O)c1ccc(F)cc1 ?
0

Query CC(C)N(C(=O)n1oc(=O)n(COCc2ccccc2)c1=O)c1ccccc1 next
0

Ok, now CCOP(=O)(Cn1c(=O)on(C(=O)N(c2ccc(F)cc2)C(C)C)c1=O)OCC
3
